Test system: NCI-H1876 tumor spheroid viability
Experiment: Anticancer human tumor NCI-H1876 cell line growth inhibition; active = viability on the fitted dose curve at most 10% of control; inactive = the rest;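 also: spheroids exposed to compounds for seven days before the viability read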
Conditions: second compound 0.003 µM; first compound 0.03 µM; spheroids with HUVEC and MSC
Description: Multicellular complex tumor spheroid response to DNA repair inhibitors in combination with DNA-damaging drugs This study explores the anticancer activities of DNA-damaging drugs and inhibitors of DNA damage repair, both as single agents and in combinations. […] Twenty-six patient-derived or established malignant cell lines were evaluated representing sarcoma, melanoma, small cell lung cancer (SCLC), non-small cell lung cancer (NSCLC), as well as bladder, ovarian and pancreatic cancers. […]
API: response.call in active, inactive

A selection of reference data follows.
INSERT INTO measurements (compound, group) VALUES
  ('Cc1sc2c(c1C)C(c1ccc(Cl)cc1)=NC(CC(=O)Nc1ccc(O)cc1)c1nnc(C)n1-2 (stereo unspecified) + COc1cc2c(cc1O)CCNC21CSC2c3c(OC(C)=O)c(C)c4c(c3C(COC1=O)N1C(O)C3Cc5cc(C)c(OC)c(O)c5C(C21)N3C)OCO4', 'active'),
  ('Cc1sc2c(c1C)C(c1ccc(Cl)cc1)=NC(CC(=O)Nc1ccc(O)cc1)c1nnc(C)n1-2 (stereo unspecified) + CC[C@@]1(O)C(=O)OCc2c1cc1n(c2=O)Cc2cc3c(CN(C)C)c(O)ccc3nc2-1', 'inactive'),
  ('Cn1ncnc1[C@H]1c2n[nH]c(=O)c3cc(F)cc(c23)N[C@@H]1c1ccc(F)cc1 + CC[C@@]1(O)C(=O)OCc2c1cc1n(c2=O)Cc2cc3c(CN(C)C)c(O)ccc3nc2-1', 'inactive'),
  ('Cn1ncnc1[C@H]1c2n[nH]c(=O)c3cc(F)cc(c23)N[C@@H]1c1ccc(F)cc1 + COc1cc2c(cc1O)CCNC21CSC2c3c(OC(C)=O)c(C)c4c(c3C(COC1=O)N1C(O)C3Cc5cc(C)c(OC)c(O)c5C(C21)N3C)OCO4', 'active'),
  ('CNCc1ccc(-c2cc(-c3nc(-c4ccc(S(=O)(=O)C(C)C)cc4)cnc3N)on2)cc1 + CC[C@@]1(O)C(=O)OCc2c1cc1n(c2=O)Cc2cc3c(CN(C)C)c(O)ccc3nc2-1', 'inactive');

Field: next compound
Could you kindly confirm the outcome this assay logged for CNCc1ccc(-c2cc(-c3nc(-c4ccc(S(=O)(=O)C(C)C)cc4)cnc3N)on2)cc1 + COc1cc2c(cc1O)CCNC21CSC2c3c(OC(C)=O)c(C)c4c(c3C(COC1=O)N1C(O)C3Cc5cc(C)c(OC)c(O)c5C(C21)N3C)OCO4 ? active

* * *

Test system: NCI-H1876 tumor spheroid viability
Assay: Anticancer human tumor NCI-H1876 cell line growth inhibition;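 also: spheroids exposed to compounds for seven days before the viability read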;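 as to viability, T/C: percent of DMSO vehicle control viability so 100% = vehicle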
Details: second compound 0.0949 µM; first compound 0.1 µM; stronger effect = lower value; spheroids with HUVEC and MSC
Listing: viability, T/C of selected molecules

Below: 2 molecules and their reported viability, T/C.
INSERT INTO assay_data (molecule, quantity_name, result) VALUES
  ('COc1cc(C)[nH]c(=O)c1CN1CCc2c(Cl)cc(C(OC)C3COC3)c(Cl)c2C1=O (stereo not drawn) + CC[C@@]1(O)C(=O)OCc2c1cc1n(c2=O)Cc2cc3c(CN(C)C)c(O)ccc3nc2-1', 'viability, T/C', '2.48%'),
  ('[2H]c1nc(C)nc([2H])c1-c1cc(NC[C@@H](C)c2cccc3c(C(=O)NC)ccnc23)ncn1 + CC[C@@]1(O)C(=O)OCc2c1cc1n(c2=O)Cc2cc3c(CN(C)C)c(O)ccc3nc2-1', 'viability, T/C', '2.98%');

Now look at this one.
Quick one: viability, T/C of CC1COCCN1c1cc(-c2ccnn2C)c2ccnc(-c3ccn[nH]3)c2n1 (stereo not drawn) + CC[C@@]1(O)C(=O)OCc2c1cc1n(c2=O)Cc2cc3c(CN(C)C)c(O)ccc3nc2-1 ? 2.23%

* * *

Tested on: NCI-H1876 tumor spheroid viability
Test: Anticancer human tumor NCI-H1876 cell line growth inhibition;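 also: spheroids exposed to compounds for seven days before the viability read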;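 as to viability, T/C: percent of DMSO vehicle control viability so 100% = vehicle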
Conditions: second compound 0.003 µM; first compound 1 µM; stronger effect = lower value; spheroids with HUVEC and MSC
Labelling field: enter TRUE if recorded viability, T/C is less than 40%. Enter FALSE if it equals or exceeds that cut-off.

Lab note: viability, T/C threshold 40%. Does this compound come in strictly under it? COc1ccc([C@@H](O)c2cc(-c3ncnc4cc(N5CCOCC5)ccc34)c(F)cc2Cl)nn1 + CC[C@@]1(O)C(=O)OCc2c1cc1n(c2=O)Cc2cc3c(CN(C)C)c(O)ccc3nc2-1 FALSE

Please answer likewise for [2H]c1nc(C)nc([2H])c1-c1cc(NC[C@@H](C)c2cccc3c(C(=O)NC)ccnc23)ncn1 + CC[C@@]1(O)C(=O)OCc2c1cc1n(c2=O)Cc2cc3c(CN(C)C)c(O)ccc3nc2-1 FALSE

Please answer likewise for COc1ccc([C@@H](O)c2cc(-c3ncnc4cc(N5CCOCC5)ccc34)c(F)cc2Cl)nn1 + COc1cc2c(cc1O)CCNC21CSC2c3c(OC(C)=O)c(C)c4c(c3C(COC1=O)N1C(O)C3Cc5cc(C)c(OC)c(O)c5C(C21)N3C)OCO4 TRUE

Please answer likewise for Cc1cc(C)c(CNC(=O)c2cc(-c3ccc(CN4CCOCC4)cc3)cc3c2cnn3C2CCCC2)c(=O)[nH]1 + COc1cc2c(cc1O)CCNC21CSC2c3c(OC(C)=O)c(C)c4c(c3C(COC1=O)N1C(O)C3Cc5cc(C)c(OC)c(O)c5C(C21)N3C)OCO4 TRUE

* * *

Test system: NCI-H1876 tumor spheroid viability
Assay: Anticancer human tumor NCI-H1876 cell line growth inhibition;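 also: spheroids exposed to compounds for seven days before the viability read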;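 as to viability, T/C: percent of DMSO vehicle control viability so 100% = vehicle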
Conditions: second compound 0.000949 µM; first compound 0.316 µM; stronger effect = lower value; spheroids with HUVEC and MSC
Quantity name: viability, T/C (%)
Kindly provide the numeric value in % only, without the unit symbol.

INSERT INTO measurements (molecule, assay_target, quantitative_result) VALUES
  ('Cc1cc(C)c(CNC(=O)c2cc(-c3ccc(CN4CCOCC4)cc3)cc3c2cnn3C2CCCC2)c(=O)[nH]1 + COc1cc2c(cc1O)CCNC21CSC2c3c(OC(C)=O)c(C)c4c(c3C(COC1=O)N1C(O)C3Cc5cc(C)c(OC)c(O)c5C(C21)N3C)OCO4', 'NCI-H1876 tumor spheroid viability', 3.54),
  ('CC(C)n1c(=O)n(C)c2cnc3cc(F)c(-c4ccc(OCCCN5CCCCC5)nc4)cc3c21 + COc1cc2c(cc1O)CCNC21CSC2c3c(OC(C)=O)c(C)c4c(c3C(COC1=O)N1C(O)C3Cc5cc(C)c(OC)c(O)c5C(C21)N3C)OCO4', 'NCI-H1876 tumor spheroid viability', 1.77);

Quick one: viability, T/C of [2H]c1nc(C)nc([2H])c1-c1cc(NC[C@@H](C)c2cccc3c(C(=O)NC)ccnc23)ncn1 + COc1cc2c(cc1O)CCNC21CSC2c3c(OC(C)=O)c(C)c4c(c3C(COC1=O)N1C(O)C3Cc5cc(C)c(OC)c(O)c5C(C21)N3C)OCO4 ? 2.32

* * *

Tested on: NCI-H1876 tumor spheroid viability
Experiment: Anticancer human tumor NCI-H1876 cell line growth inhibition; active = viability on the fitted dose curve at most 10% of control; inactive = the rest;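 also: spheroids exposed to compounds for seven days before the viability read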
Conditions: second compound 0.003 µM; first compound 10 µM; spheroids with HUVEC and MSC
Experimental: Multicellular complex tumor spheroid response to DNA repair inhibitors in combination with DNA-damaging drugs This study explores the anticancer activities of DNA-damaging drugs and inhibitors of DNA damage repair, both as single agents and in combinations. […] Twenty-six patient-derived or established malignant cell lines were evaluated representing sarcoma, melanoma, small cell lung cancer (SCLC), non-small cell lung cancer (NSCLC), as well as bladder, ovarian and pancreatic cancers. […]
API: response.call in active, inactive

A selection of reference data follows.
INSERT INTO measurements (compound, group) VALUES
  ('[2H]c1nc(C)nc([2H])c1-c1cc(NC[C@@H](C)c2cccc3c(C(=O)NC)ccnc23)ncn1 + CC[C@@]1(O)C(=O)OCc2c1cc1n(c2=O)Cc2cc3c(CN(C)C)c(O)ccc3nc2-1', 'inactive'),
  ('COc1cc(C)[nH]c(=O)c1CN1CCc2c(Cl)cc(C(OC)C3COC3)c(Cl)c2C1=O (configuration not stated) + CC[C@@]1(O)C(=O)OCc2c1cc1n(c2=O)Cc2cc3c(CN(C)C)c(O)ccc3nc2-1', 'inactive');

Could you kindly confirm the outcome this assay logged for CC(C)n1c(=O)n(C)c2cnc3cc(F)c(-c4ccc(OCCCN5CCCCC5)nc4)cc3c21 + COc1cc2c(cc1O)CCNC21CSC2c3c(OC(C)=O)c(C)c4c(c3C(COC1=O)N1C(O)C3Cc5cc(C)c(OC)c(O)c5C(C21)N3C)OCO4 ? active

* * *

Test system: NCI-H1876 tumor spheroid viability
Experiment: Anticancer human tumor NCI-H1876 cell line growth inhibition;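 also: spheroids exposed to compounds for seven days before the viability read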
Settings: curve of first compound; second compound 30 pM; spheroids with HUVEC and MSC
pIC50: −log10 of the molar value.
Listing: pIC50 of selected compounds

Below: 4 compounds and their reported pIC50.
INSERT INTO assay_data (compound, quantity_name, result) VALUES
  ('[2H]c1nc(C)nc([2H])c1-c1cc(NC[C@@H](C)c2cccc3c(C(=O)NC)ccnc23)ncn1 + COc1cc2c(cc1O)CCNC21CSC2c3c(OC(C)=O)c(C)c4c(c3C(COC1=O)N1C(O)C3Cc5cc(C)c(OC)c(O)c5C(C21)N3C)OCO4', 'pIC50', '< 5.00'),
  ('COc1cc(C)[nH]c(=O)c1CN1CCc2c(Cl)cc(C(OC)C3COC3)c(Cl)c2C1=O (stereo not given) + COc1cc2c(cc1O)CCNC21CSC2c3c(OC(C)=O)c(C)c4c(c3C(COC1=O)N1C(O)C3Cc5cc(C)c(OC)c(O)c5C(C21)N3C)OCO4', 'pIC50', '< 5.00'),
  ('CC(C)n1c(=O)n(C)c2cnc3cc(F)c(-c4ccc(OCCCN5CCCCC5)nc4)cc3c21 + COc1cc2c(cc1O)CCNC21CSC2c3c(OC(C)=O)c(C)c4c(c3C(COC1=O)N1C(O)C3Cc5cc(C)c(OC)c(O)c5C(C21)N3C)OCO4', 'pIC50', '< 5.00'),
  ('CC1COCCN1c1cc(-c2ccnn2C)c2ccnc(-c3ccn[nH]3)c2n1 (stereo not given) + COc1cc2c(cc1O)CCNC21CSC2c3c(OC(C)=O)c(C)c4c(c3C(COC1=O)N1C(O)C3Cc5cc(C)c(OC)c(O)c5C(C21)N3C)OCO4', 'pIC50', '> 7.50');

Quick one: pIC50 of Cc1cc(C)c(CNC(=O)c2cc(-c3ccc(CN4CCOCC4)cc3)cc3c2cnn3C2CCCC2)c(=O)[nH]1 + COc1cc2c(cc1O)CCNC21CSC2c3c(OC(C)=O)c(C)c4c(c3C(COC1=O)N1C(O)C3Cc5cc(C)c(OC)c(O)c5C(C21)N3C)OCO4 ? < 5.00
